Protocol details: Viability Counterscreen for Confirmatory qHTS for Inhibitors of ATXN expression; note: nearly all actives have a fitted effect of over 50% in size
Experimental context: HEK-293 ATXN2-luc cells viability, CellTiter-Fluor, 24 h
Out of some 2,100 compounds screened, about 260 (12%) were called active. Not shown: some 58% with an inconclusive outcome. Calls come from the whole dose curve; as a rule, active = well fitted cell-killing curve with a large enough effect; inconclusive = small, poorly fitted or top-dose-only effect, or effect the other way; inactive = flat fitted curve, though single readings scatter. The list shows a part of the results.
A correct response names exactly one class from active, inactive

[
  {
    "Molecule": "Cc1cccn2c(=O)c3cc(C(=O)NCCN4CCOCC4)c(=N)n(Cc4ccc(F)cc4)c3nc12",
    "Assigned category": "inactive"
  },
  {
    "Molecule": "CC(=O)Nc1ccc(NC2=Nc3ccccc3N3C2=Nc2c(c(C)nn2-c2ccccc2)C3c2ccccc2)cc1 (stereo not drawn)",
    "Assigned category": "inactive"
  },
  {
    "Molecule": "COC(=O)c1c(C)oc2ccc(N(C(=O)c3ccncc3)S(=O)(=O)c3ccc(C)cc3C)cc12",
    "Assigned category": "inactive"
  }
]

// next entry
What call does the record list for `CC(=O)Nc1ccc(Nc2c3ccccc3nc3ccccc23)cc1` ?
active
